system: NCI-H226; assay: NCI tumour cell line growth inhibition, 48 h
Activity calls are given as the source filed them. Cut-off read from the data, not from the text of the source: active = GI50 up to about 1.1 µM and inactive = higher.
Known GI50 of a selection of compounds
measurement.label: GI50

INSERT INTO measurements (compound, result_value) VALUES
  ('C/C=C/C(C#N)O[Si](C)(C)C (stereo unspecified)', '> 100 µM (inactive)'),
  ('COC1=C(Br)[C@H](O)[C@@]2(C=C1Br)CC(C(=O)NCCCOc1c(Br)cc(C(O)CNC(C)=O)cc1Br)=NO2 (stereo partly specified)', '> 10 µM (inactive)'),
  ('C#CCOC(=O)C(=[N+]=[N-])C(=O)CC(C)C', '> 10 µM (inactive)'),
  ('CCN(CC)c1ccc2cc(C(=O)Nc3nc(C45CC6CC(CC(C6)C4)C5)cs3)c(=O)oc2c1', '> 100 µM (inactive)'),
  ('N#CN=C(N(Cc1ccccc1)Cc1ccccc1)N(Cc1ccccc1)Cc1ccccc1', '32.5 µM (inactive)'),
  ('CC(=O)c1cccc(NC(=O)C(=O)C(C(=O)c2ccccc2F)C2OC(=O)c3ccccc32)c1 (stereo unspecified)', '19.1 µM (inactive)'),
  ('Cc1ccc([N+](=O)[O-])cc1S(=O)(=O)Nc1ccc(C2=NN(c3ccc([N+](=O)[O-])cc3[N+](=O)[O-])C(c3ccccc3)C2)cc1 (stereo unspecified)', '17.4 µM (inactive)'),
  ('c1cc2n(n1)CCN2', '1960 µM (inactive)'),
  ('O=C1c2sc(-c3ccc(F)cc3)cc2-n2cccc21', '24.4 µM (inactive)'),
  ('Cc1ccc(C(=O)Cn2c(C(=O)/C=C/c3cccs3)nc3ccccc32)cc1', '> 100 µM (inactive)'),
  ('O=[N+]([O-])c1ccc(Sc2c3ccccc3nc3cc(Cl)ccc23)cc1', '> 10 µM (inactive)'),
  ('CSC1NC(c2ccc(Cl)cc2)=C(C#N)C(=O)N1C1OCC(OC(C)=O)C(OC(C)=O)C1OC(C)=O (stereo unspecified)', '> 100 µM (inactive)'),
  ('CCCCCCNC(=O)C1=C(C)NC(C)=C(C(=O)NCCCCCC)C1', '> 100 µM (inactive)'),
  ('CC(C)(C)c1ccc(-n2c3nc(=O)n(-c4ccccc4CO)c(=O)c-3cc3ccccc32)cc1', '28 µM (inactive)'),
  ('Cc1ccc(-n2cnc3c(N)nc(N)nc32)cc1', '> 100 µM (inactive)'),
  ('O=C(O)CCCc1ccc2ccc3ccccc3c2c1', '78.2 µM (inactive)');

* * *

test system: OVCAR-4; assay: NCI tumour cell line growth inhibition, 48 h
The source made the active and inactive calls. No stated cut-off is given here; in the data, active = GI50 up to about 1.1 µM and inactive = higher.
measurement.label: GI50

INSERT INTO results (compound, result_value) VALUES
  ('CN(CCN(C)CCN(C)C(=O)Cc1ccc(Cl)c(Cl)c1)CCN1CCCC1', '77.6 µM (inactive)'),
  ('Cc1cc(O)nc(NN2C(Cl)C(=O)C2c2cccc([N+](=O)[O-])c2)n1 (stereo unspecified)', '23.6 µM (inactive)'),
  ('O=C1/C(=C/c2ccccc2)CCC/C1=C\c1ccccc1', '14.9 µM (inactive)'),
  ('CCN(CC)c1ccc2cc(C(=O)Nc3nc(C45CC6CC(CC(C6)C4)C5)cs3)c(=O)oc2c1', '> 100 µM (inactive)'),
  ('CCCCCCCCCCCCCCCCCCNC(=S)N/C=C1/C(=O)C=C(C)OC1=O', '23.7 µM (inactive)'),
  ('CN(C)C(=S)N=C(Nc1ccccc1)Nc1ccccc1', '> 100 µM (inactive)'),
  ('COc1ccc(NC(=O)C(=O)NO)c(OC)c1', '17.7 µM (inactive)'),
  ('CC(C)N1CCN(c2ccncc2S(=O)(=O)N2CCCCC2)CC1', '> 100 µM (inactive)'),
  ('C[C@@H](CO)C1=C(O)C(=O)c2c(ccc3c2CCCC3(C)C)C1=O', '46.7 µM (inactive)'),
  ('Cc1c2cc[n+](C)cc2c(C)c2c1[nH]c1ccc(Cl)cc12', '3.28 µM (inactive)'),
  ('Cc1ccc(Nc2n[nH]c(NS(=O)(=O)c3cc(C)c(Cl)cc3S)n2)cc1', '> 100 µM (inactive)'),
  ('C=C(Br)N(CC)CC', '> 100 µM (inactive)'),
  ('c1ccc(-c2ccc(-c3cc4ccccc4[nH]3)cc2)cc1', '> 100 µM (inactive)'),
  ('CCOC(=O)/C=C(/C(=O)OCC)n1ccc(=O)n(CC(=O)OCC)c1=O', '1.84 µM (inactive)'),
  ('CC(C)N(C(=O)C12C3C4C5C3C1(C#N)C5C42)C(C)C (stereo unspecified)', '> 100 µM (inactive)'),
  ('O=C(O)c1ccccc1C1c2ccc(Cl)cc2Oc2cc(Cl)ccc21', '> 100 µM (inactive)');
